Reported pIC50 values for the following molecules.
Target: C-C chemokine receptor type 6 (Homo sapiens)
Sequence (P51684 whole entry): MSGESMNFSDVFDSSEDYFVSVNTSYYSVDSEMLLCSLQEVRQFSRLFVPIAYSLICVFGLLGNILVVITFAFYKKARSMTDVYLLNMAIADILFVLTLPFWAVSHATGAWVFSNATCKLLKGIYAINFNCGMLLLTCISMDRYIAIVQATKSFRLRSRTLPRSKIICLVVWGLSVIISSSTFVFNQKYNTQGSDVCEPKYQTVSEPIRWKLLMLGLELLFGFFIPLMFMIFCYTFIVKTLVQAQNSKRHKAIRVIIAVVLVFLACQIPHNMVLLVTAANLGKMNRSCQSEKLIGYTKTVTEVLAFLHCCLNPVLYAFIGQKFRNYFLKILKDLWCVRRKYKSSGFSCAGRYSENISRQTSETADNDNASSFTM
pIC50: −log10 of the molar value.

[[record]]
molecule = "Cc1cc(N=NCc2ccc(F)cc2)nc(-n2nc(C)cc2C)n1 [SMR000426945]"
target_of_assay = "C-C chemokine receptor type 6 (Homo sapiens)"
measurement_label = "pIC50"
result = "< 4.18"

[[record]]
molecule = "CC(C)(C)C1CCC(=NNC(=S)NCc2ccccc2)CC1 (stereo not given) [SMR000377499]"
target_of_assay = "C-C chemokine receptor type 6 (Homo sapiens)"
measurement_label = "pIC50"
result = "< 4.18"

[[record]]
molecule = "O=C1Nc2ccc([N+](=O)[O-])cc2/C1=N/NC(=O)c1cc(-c2ccccc2Cl)nc2ccccc12"
target_of_assay = "C-C chemokine receptor type 6 (Homo sapiens)"
measurement_label = "pIC50"
result = "< 4.18"

[[record]]
molecule = "O=C1C=CC([N+](=O)[O-])=CC1CN=Nc1ccccn1 (stereo not given) [MLS000585015]"
target_of_assay = "C-C chemokine receptor type 6 (Homo sapiens)"
measurement_label = "pIC50"
result = "< 4.18"

[[record]]
molecule = "C/C=C(\\C)C(=O)OC1[C@H](OC(C)=O)C2(CO)C(CC1(C)C)C1=CCC3C4(C)CCC(O[C@@H]5O[C@H](C(=O)O)[C@@H](O[C@@H]6O[C@H](CO)[C@@H](O)[C@H](O)[C@H]6O)[C@H](O)[C@H]5O[C@H]5O[C@H](CO)[C@@H](O)[C@H](O)[C@H]5O)[C@](C)(CO)C4CCC3(C)[C@]1(C)C[C@H]2O (stereo not given in full) [MLS002695979]"
target_of_assay = "C-C chemokine receptor type 6 (Homo sapiens)"
measurement_label = "pIC50"
result = 4.79

[[record]]
molecule = "CN1C(=O)C(C2CC(c3ccc(Cl)cc3)N=N2)C(=O)N(C)C1=O (stereo not given) [SMR000439471]"
target_of_assay = "C-C chemokine receptor type 6 (Homo sapiens)"
measurement_label = "pIC50"
result = 4.83

[[record]]
molecule = "O=C1C(/C=N/c2ccc(N3CCOCC3)cc2)=CC(Cc2ccccc2)C=C1[N+](=O)[O-] (stereo not given) [SMR000231104]"
target_of_assay = "C-C chemokine receptor type 6 (Homo sapiens)"
measurement_label = "pIC50"
result = "< 4.18"

[[record]]
molecule = "CN(C)c1nc(N=NCc2ccccc2O)nc(Nc2ccc(F)cc2)n1"
target_of_assay = "C-C chemokine receptor type 6 (Homo sapiens)"
measurement_label = "pIC50"
result = "< 4.18"

[[record]]
molecule = "O=Nc1c(C2C(=O)Nc3cc(Br)ccc32)[nH]c2ccccc12 (stereo not given) [6-bromoindirubin-3-oxime]"
target_of_assay = "C-C chemokine receptor type 6 (Homo sapiens)"
measurement_label = "pIC50"
result = "< 4.18"


// next entry
Prompt: Name the recorded pIC50 of the item O=C1C([N+](=O)[O-])=CC=CC1CN=Nc1ccc2ccccc2n1 (stereo not given) in your answer.
Response: < 4.18
